# Tested on: enolase, PK, LDH
# Procedure text: Counter-screen assay (coupled enzymes without PGAM1, 2PG as substrate)
# Type: biochemical
Quantity: Counter-Screen Assay (5 μM), inhibition ratio against the other three enzymes (%)

{"Molecule": "COc1ccc2oc3cc(NS(=O)(=O)c4ccc(-c5ccccc5)cc4)cc(O)c3c(=O)c2c1 [Compound 15d]", "Observed result": 6}
{"Molecule": "O=c1c2c(O)cccc2oc2cc(NS(=O)(=O)c3cccc(Cl)c3F)cc(O)c12", "Observed result": 12}
{"Molecule": "CC(=O)Oc1ccc2oc3cc(NS(=O)(=O)c4ccc(-c5ccccc5)cc4)cc(O)c3c(=O)c2c1 [Compound 15j]", "Observed result": 7}

P = O=c1c2c(O)cccc2oc2cc(NS(=O)(=O)c3cccc4ccccc34)cc(O)c12
Q = O=c1c2cc([N+](=O)[O-])ccc2oc2cc(NS(=O)(=O)c3ccc(-c4ccccc4)cc3)cc(O)c12 [Compound 15h]
When P and Q are compared, which has the higher number for Counter-Screen Assay (5 μM), inhibition ratio against the other three enzymes? # answer = label of selected item
P

A = O=c1c2cc(Cl)ccc2oc2cc(NS(=O)(=O)c3ccc(-c4ccccc4)cc3)cc(O)c12 [Compound 15f]
B = O=c1c2c(O)cccc2oc2cc(NS(=O)(=O)c3ccc(C4CCCCC4)cc3)cc(O)c12
When A and B are compared, which has the higher number for Counter-Screen Assay (5 μM), inhibition ratio against the other three enzymes? # answer = label of selected item
B
(B: 15%, A: 8%)

a = Cc1cccc2c(=O)c3c(O)cc(NS(=O)(=O)c4ccc(-c5ccccc5)cc4)cc3oc12 [Compound 15c]
b = COc1cccc2c(=O)c3c(O)cc(NS(=O)(=O)c4ccc(-c5ccccc5)cc4)cc3oc12 [Compound 15b]
// compare measured Counter-Screen Assay (5 μM), inhibition ratio against the other three enzymes between a and b ; output the lower one # answer = label of selected item
a
(a: 7%, b: 13%)

a = Cc1ccc2oc3cc(NS(=O)(=O)c4ccc(-c5ccccc5)cc4)cc(O)c3c(=O)c2c1 [Compound 15e]
b = O=c1c2cc(O)ccc2oc2cc(NS(=O)(=O)c3ccc(-c4ccccc4)cc3)cc(O)c12 [Compound 15i]
// compare measured Counter-Screen Assay (5 μM), inhibition ratio against the other three enzymes between a and b ; output the lower one # answer = label of selected item
a

Entry source: paper PMC6100356
